# Test system: 521955-158-R2-J5-PDC complex spheroids, viability;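 also: compound exposure lasted seven days before the viability read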
# Assay: Anticancer human tumor 521955-158-R2-J5-PDC patient-derived pancreatic carcinoma cell line growth inhibition [RAS]
# Experimental setup: curve of first compound; second compound 0.003 µM
Consider the following compounds and their measured pIC50 readings.
Quick note: pIC50 values are minus log10 of concentrations in mol/L.

Solved cases (5 shown):
[[record]]
compound = "O=C(c1ccc(F)c(F)c1Nc1ccc(I)cc1F)N1CC(O)([C@@H]2CCCCN2)C1 + CCn1c(-c2cccnc2C(C)OC)c2c3cc(ccc31)N1CCOC(CC(NC(=O)C(C(C)C)N(C)C(=O)C3(F)CCN(C(=O)C#CC(C)(C)N(C)C)CC3)C(=O)N3CCCC(N3)C(=O)OCC(C)(C)C2)C1"
value_measured = 7.57

[[record]]
compound = "CC1(C)CCC(Nc2ncc(C(F)(F)F)c(-c3c[nH]c4c(P(C)(C)=O)c(C#N)ccc34)n2)CN1 (centres undefined) + CCn1c(-c2cccnc2C(C)OC)c2c3cc(ccc31)N1CCOC(CC(NC(=O)C(C(C)C)N(C)C(=O)C3(F)CCN(C(=O)C#CC(C)(C)N(C)C)CC3)C(=O)N3CCCC(N3)C(=O)OCC(C)(C)C2)C1"
value_measured = 8.06

[[record]]
compound = "CCc1c2c(nc3ccc(O)cc13)-c1cc3c(c(=O)n1C2)COC(=O)[C@]3(O)CC + CCn1c(-c2cccnc2C(C)OC)c2c3cc(ccc31)N1CCOC(CC(NC(=O)C(C(C)C)N(C)C(=O)C3(F)CCN(C(=O)C#CC(C)(C)N(C)C)CC3)C(=O)N3CCCC(N3)C(=O)OCC(C)(C)C2)C1"
value_measured = 8.62

[[record]]
compound = "CC1(O)CCCC1n1c(=O)c(C(F)F)cc2cnc(NC3CCN(S(C)(=O)=O)CC3)nc21 (centres undefined) + CCn1c(-c2cccnc2C(C)OC)c2c3cc(ccc31)N1CCOC(CC(NC(=O)C(C(C)C)N(C)C(=O)C3(F)CCN(C(=O)C#CC(C)(C)N(C)C)CC3)C(=O)N3CCCC(N3)C(=O)OCC(C)(C)C2)C1"
value_measured = 5.29

[[record]]
compound = "Nc1ccn(C2OC(CO)C(O)C2(F)F)c(=O)n1 (centres undefined) + CCn1c(-c2cccnc2C(C)OC)c2c3cc(ccc31)N1CCOC(CC(NC(=O)C(C(C)C)N(C)C(=O)C3(F)CCN(C(=O)C#CC(C)(C)N(C)C)CC3)C(=O)N3CCCC(N3)C(=O)OCC(C)(C)C2)C1"
value_measured = 6.69


Below: the item to evaluate.
Entry under review: CC(C)n1nc(-c2ccc3oc(N)nc3c2)c2c(N)ncnc21 + CCn1c(-c2cccnc2C(C)OC)c2c3cc(ccc31)N1CCOC(CC(NC(=O)C(C(C)C)N(C)C(=O)C3(F)CCN(C(=O)C#CC(C)(C)N(C)C)CC3)C(=O)N3CCCC(N3)C(=O)OCC(C)(C)C2)C1 . Reported pIC50?
7.70
